src = ChEMBL document CHEMBL6115022

# tested system: Neuronal acetylcholine receptor; alpha4/beta2 (Homo sapiens, UniProt P17787+P43681)
# Sequence (P17787 whole entry): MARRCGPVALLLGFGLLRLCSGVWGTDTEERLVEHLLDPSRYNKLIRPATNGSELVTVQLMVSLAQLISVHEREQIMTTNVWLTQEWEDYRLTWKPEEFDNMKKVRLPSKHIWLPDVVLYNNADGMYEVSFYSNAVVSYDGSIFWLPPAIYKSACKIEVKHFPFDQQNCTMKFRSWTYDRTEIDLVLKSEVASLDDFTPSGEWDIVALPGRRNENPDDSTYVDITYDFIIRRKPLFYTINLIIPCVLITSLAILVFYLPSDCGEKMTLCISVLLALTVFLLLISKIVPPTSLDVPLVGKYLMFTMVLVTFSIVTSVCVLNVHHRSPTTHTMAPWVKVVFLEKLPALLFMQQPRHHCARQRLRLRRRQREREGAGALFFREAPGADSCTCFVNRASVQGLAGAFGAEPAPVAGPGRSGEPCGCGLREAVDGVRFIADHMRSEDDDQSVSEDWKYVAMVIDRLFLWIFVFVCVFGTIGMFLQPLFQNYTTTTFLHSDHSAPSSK
# Sequence (P43681 whole entry): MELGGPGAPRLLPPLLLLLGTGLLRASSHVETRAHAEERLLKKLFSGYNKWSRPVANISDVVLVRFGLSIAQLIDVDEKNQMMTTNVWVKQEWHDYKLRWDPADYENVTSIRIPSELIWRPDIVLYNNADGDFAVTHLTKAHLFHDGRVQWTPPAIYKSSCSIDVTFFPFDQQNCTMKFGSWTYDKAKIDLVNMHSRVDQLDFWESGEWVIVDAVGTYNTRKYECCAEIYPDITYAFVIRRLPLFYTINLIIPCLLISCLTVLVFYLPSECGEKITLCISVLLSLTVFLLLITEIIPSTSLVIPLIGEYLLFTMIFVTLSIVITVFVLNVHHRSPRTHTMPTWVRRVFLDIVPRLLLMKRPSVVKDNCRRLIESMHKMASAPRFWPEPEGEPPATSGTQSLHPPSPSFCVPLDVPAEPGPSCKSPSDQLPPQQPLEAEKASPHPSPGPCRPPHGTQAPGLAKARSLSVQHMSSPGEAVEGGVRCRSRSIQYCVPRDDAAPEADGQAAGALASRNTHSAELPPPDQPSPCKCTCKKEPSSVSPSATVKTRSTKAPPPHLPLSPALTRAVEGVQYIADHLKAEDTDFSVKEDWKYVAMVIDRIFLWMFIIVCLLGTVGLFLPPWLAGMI
# procedure details: Displacement of [3H]epibatidine from human alpha4beta2 nAChR extracted from HEK293 cell membrane assessed as residence time incubated for 240 mins by liquid scintillation counting method
# Format: cell membranes
# measurement setup: filed as agonist
Use 0.4 h as the dividing line for TIME, with the line itself on the True side and lower values as False.

compound	tested system	discrete label
CCOc1cncc(/C=C/CCNC)c1	Neuronal acetylcholine receptor; alpha4/beta2 (Homo sapiens, UniProt P17787+P43681)	False
O=c1cccc2n1C[C@@H]1CNC[C@H]2C1 [CYTISINICLINE]	Neuronal acetylcholine receptor; alpha4/beta2 (Homo sapiens, UniProt P17787+P43681)	False
C[N+](C)(C)CCOC(N)=O [CARBAMOYLCHOLINE]	Neuronal acetylcholine receptor; alpha4/beta2 (Homo sapiens, UniProt P17787+P43681)	False

Request: Kindly determine if TIME recorded for OCCCCC#Cc1cncc(OC[C@@H]2CCN2)c1 is above or exactly 0.4 h.
Result: True

Request: Kindly determine if TIME recorded for Cc1ncccc1OC[C@@H]1CCCN1 [POZANICLINE] is above or exactly 0.4 h.
Result: False

Request: Kindly determine if TIME recorded for Clc1ccc(C2CC3CCC2N3)cn1 (racemic) is above or exactly 0.4 h.
Result: True

Request: Kindly determine if TIME recorded for CN1CCC[C@H]1c1cccnc1 is above or exactly 0.4 h.
Result: False

====

# tested system: Neuronal acetylcholine receptor; alpha3/beta4 (Rattus norvegicus, UniProt P04757+P12392)
# Sequence (P04757 whole entry): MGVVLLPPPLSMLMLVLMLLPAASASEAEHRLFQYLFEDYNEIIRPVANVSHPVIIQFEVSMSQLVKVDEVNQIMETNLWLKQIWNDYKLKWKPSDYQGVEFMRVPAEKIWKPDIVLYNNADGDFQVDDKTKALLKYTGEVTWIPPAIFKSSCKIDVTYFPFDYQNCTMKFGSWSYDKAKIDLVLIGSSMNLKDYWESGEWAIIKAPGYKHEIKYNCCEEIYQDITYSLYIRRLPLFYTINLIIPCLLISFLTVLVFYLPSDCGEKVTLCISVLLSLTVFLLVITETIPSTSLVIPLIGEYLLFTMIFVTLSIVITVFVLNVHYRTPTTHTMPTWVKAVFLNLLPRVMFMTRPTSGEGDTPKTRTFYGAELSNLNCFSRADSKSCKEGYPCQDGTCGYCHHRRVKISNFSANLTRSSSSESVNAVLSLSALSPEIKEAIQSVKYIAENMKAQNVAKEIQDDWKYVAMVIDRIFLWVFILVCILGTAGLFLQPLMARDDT
# Sequence (P12392 whole entry): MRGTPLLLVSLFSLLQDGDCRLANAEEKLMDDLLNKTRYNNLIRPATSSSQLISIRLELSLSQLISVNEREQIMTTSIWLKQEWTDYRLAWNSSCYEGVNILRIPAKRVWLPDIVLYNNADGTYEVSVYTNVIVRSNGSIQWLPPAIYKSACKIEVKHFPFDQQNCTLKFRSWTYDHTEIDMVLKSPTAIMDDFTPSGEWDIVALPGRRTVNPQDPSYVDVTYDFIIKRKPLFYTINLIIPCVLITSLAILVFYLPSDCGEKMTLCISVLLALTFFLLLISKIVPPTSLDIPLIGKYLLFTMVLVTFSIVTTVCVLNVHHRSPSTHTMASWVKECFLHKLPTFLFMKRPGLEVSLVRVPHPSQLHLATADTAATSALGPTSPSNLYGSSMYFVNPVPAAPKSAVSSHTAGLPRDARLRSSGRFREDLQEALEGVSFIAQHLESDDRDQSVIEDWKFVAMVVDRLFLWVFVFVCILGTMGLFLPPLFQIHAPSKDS
# procedure details: Displacement of [3H]epibatidine from rat alpha3beta4 nAChR extracted from HEK293 cell membrane assessed as dissociation constant incubated for 60 to 120 mins by liquid scintillation counting method
// assign MET if Kd falls strictly below 2000 nM, else NOT MET (ties count as NOT MET)

CCOc1cncc(/C=C/CCNC)c1 NOT MET
OCCCCC#Cc1cncc(OC[C@@H]2CCN2)c1 NOT MET
Cc1ncccc1OC[C@@H]1CCCN1 NOT MET
C[N+](C)(C)CCOC(N)=O MET

Request: Does the reported Kd of the following compound sit strictly below 2000 nM? O=c1cccc2n1C[C@@H]1CNC[C@H]2C1
Result: MET

====

The reader will find reported K values listed item by item below.
# tested system: Neuronal acetylcholine receptor; alpha4/beta2 (Homo sapiens, UniProt P17787+P43681)
# procedure details: Displacement of [3H]epibatidine from human alpha4beta2 nAChR extracted from HEK293 cell membrane assessed as dissociation binding constant (Koff) incubated for 240 mins by liquid scintillation counting method
# Assay type: cell membranes
# measurement setup: filed as agonist
Numbers only here, please. The scale is min⁻¹.

Look over these answered cases.
compound	tested system	unit name	K
OCCCCC#Cc1cncc(OC[C@@H]2CCN2)c1	Neuronal acetylcholine receptor; alpha4/beta2 (Homo sapiens, UniProt P17787+P43681)	min⁻¹	0.004
CCOc1cncc(/C=C/CCNC)c1	Neuronal acetylcholine receptor; alpha4/beta2 (Homo sapiens, UniProt P17787+P43681)	min⁻¹	0.57
CN1CCC[C@H]1c1cccnc1	Neuronal acetylcholine receptor; alpha4/beta2 (Homo sapiens, UniProt P17787+P43681)	min⁻¹	0.27

Record for C[N+](C)(C)CCOC(N)=O under target or system Neuronal acetylcholine receptor; alpha4/beta2 (Homo sapiens, UniProt P17787+P43681): K reported as 0.25

Record for O=c1cccc2n1C[C@@H]1CNC[C@H]2C1 under target or system Neuronal acetylcholine receptor; alpha4/beta2 (Homo sapiens, UniProt P17787+P43681): K reported as 0.05

Record for Clc1ccc(C2CC3CCC2N3)cn1 (racemic) under target or system Neuronal acetylcholine receptor; alpha4/beta2 (Homo sapiens, UniProt P17787+P43681): K reported as 0.012

Record for Cc1ncccc1OC[C@@H]1CCCN1 under target or system Neuronal acetylcholine receptor; alpha4/beta2 (Homo sapiens, UniProt P17787+P43681): K reported as 0.23

====

The reader will find reported K values listed item by item below.
# tested system: Neuronal acetylcholine receptor; alpha4/beta2 (Homo sapiens, UniProt P17787+P43681)
# procedure details: Displacement of [3H]epibatidine from human alpha4beta2 nAChR extracted from HEK293 cell membrane assessed as association binding constant (Kon) incubated for 240 mins by liquid scintillation counting method
# Format: cell membranes
# measurement setup: filed as agonist
Numbers only here, please. The scale is M⁻¹ s⁻¹.

Look over these answered cases.
compound	value
CCOc1cncc(/C=C/CCNC)c1	4.83e+06
C[N+](C)(C)CCOC(N)=O [CARBAMOYLCHOLINE]	16700
Cc1ncccc1OC[C@@H]1CCCN1 [POZANICLINE]	517000
CN1CCC[C@H]1c1cccnc1	3.83e+06
OCCCCC#Cc1cncc(OC[C@@H]2CCN2)c1	1.12e+07

Record for O=c1cccc2n1C[C@@H]1CNC[C@H]2C1 [CYTISINICLINE] under target or system Neuronal acetylcholine receptor; alpha4/beta2 (Homo sapiens, UniProt P17787+P43681): K reported as 4.33e+06

Record for Clc1ccc(C2CC3CCC2N3)cn1 (racemic) under target or system Neuronal acetylcholine receptor; alpha4/beta2 (Homo sapiens, UniProt P17787+P43681): K reported as 2.17e+07

====

# tested system: Neuronal acetylcholine receptor; alpha3/beta4 (Rattus norvegicus, UniProt P04757+P12392)
# procedure details: Displacement of [3H]epibatidine from rat alpha3beta4 nAChR extracted from HEK293 cell membrane assessed as inhibition constant incubated for 60 to 120 mins by liquid scintillation counting method
measured quantity: pKi
By convention, pKi is the negative base-10 log of a molar concentration.

Look over these answered cases.
Cc1ncccc1OC[C@@H]1CCCN1 5.00
CCOc1cncc(/C=C/CCNC)c1 4.60
O=c1cccc2n1C[C@@H]1CNC[C@H]2C1 6.96

pKi in this record for OCCCCC#Cc1cncc(OC[C@@H]2CCN2)c1 : 5.66

pKi in this record for C[N+](C)(C)CCOC(N)=O : 5.70

====

# tested system: Neuronal acetylcholine receptor; alpha4/beta2 (Homo sapiens, UniProt P17787+P43681)
# procedure details: Displacement of [3H]epibatidine from human alpha4beta2 nAChR extracted from HEK293 cell membrane assessed as inhibition constant incubated for 240 mins by liquid scintillation counting method
The reader will find reported Ki values listed item by item below.
Numbers only here, please. The scale is nM.

Look over these answered cases.
O=c1cccc2n1C[C@@H]1CNC[C@H]2C1 0.2
OCCCCC#Cc1cncc(OC[C@@H]2CCN2)c1 0.017
C[N+](C)(C)CCOC(N)=O 56
CCOc1cncc(/C=C/CCNC)c1 0.8

Now consider the entry below.
Ki in this record for CO[C@H]1CC=C2CCN3CCc4ccc(O)cc4[C@]23C1 : 3.1

====

# tested system: Neuronal acetylcholine receptor; alpha3/beta4 (Rattus norvegicus) (UniProt P04757+P12392)
# procedure details: Displacement of [3H]epibatidine from rat alpha3beta4 nAChR extracted from HEK293 cell membrane assessed as dissociation binding constant (Koff) incubated for 60 to 120 mins by liquid scintillation counting method
# Assay type: cell membranes
# measurement setup: filed as agonist, time lower 60.0 min, time upper […]
// assign yes (1) if K falls strictly below 0.3 min⁻¹, else no (0) (ties count as no (0))

Please review the following examples before continuing.
compound	discrete label
Clc1ccc(C2CC3CCC2N3)cn1 (racemic)	yes (1)
C[N+](C)(C)CCOC(N)=O [CARBAMOYLCHOLINE]	no (0)
O=c1cccc2n1C[C@@H]1CNC[C@H]2C1 [CYTISINICLINE]	yes (1)
Cc1ncccc1OC[C@@H]1CCCN1 [POZANICLINE]	no (0)
OCCCCC#Cc1cncc(OC[C@@H]2CCN2)c1	no (0)

Shift focus to the following entry.
Request: Does the reported K of the following compound sit strictly below 0.3 min⁻¹? CCOc1cncc(/C=C/CCNC)c1
Result: no (0)

====

# procedure details: Selectivity index, ratio of Ki for displacement of [3H]epibatidine from rat alpha3beta4 nAChR extracted from HEK293 cell membrane to Ki for displacement of [3H]epibatidine from human alpha4beta2 nAChR extracted from HEK293 cell membrane
measured quantity: Ratio Ki
Number, no unit, nothing else.

Look over these answered cases.
OCCCCC#Cc1cncc(OC[C@@H]2CCN2)c1 7000
C[N+](C)(C)CCOC(N)=O 8
O=c1cccc2n1C[C@@H]1CNC[C@H]2C1 150

Now consider the entry below.
Ratio Ki in this record for CCOc1cncc(/C=C/CCNC)c1 : 7000

====

# tested system: Neuronal acetylcholine receptor; alpha4/beta2 (Homo sapiens, UniProt P17787+P43681)
# procedure details: Displacement of [3H]epibatidine from human alpha4beta2 nAChR extracted from HEK293 cell membrane assessed as dissociation constant incubated for 240 mins by liquid scintillation counting method
pKd: −log10 of the molar value.
Use 9 as the dividing line for pKd, with the line itself on the Condition met side and lower values as Condition not met.

Please review the following examples before continuing.
O=c1cccc2n1C[C@@H]1CNC[C@H]2C1 Condition met
CO[C@H]1CC=C2CCN3CCc4ccc(O)cc4[C@]23C1 Condition not met
C[N+](C)(C)CCOC(N)=O Condition not met

Shift focus to the following entry.
Request: Kindly determine if pKd recorded for OCCCCC#Cc1cncc(OC[C@@H]2CCN2)c1 is above or exactly 9.
Result: Condition met
